Cited source: paper PMC12009303

- study.system: T1, AAV9 capsid (adeno-associated virus serotype 9, UniProt Q6JC40)
- T1 construct: also called wtAAV9; AAV9 vector; copies: 60
- protocol.summary: far-Western, overlay or dot blot; native dot immunoblot: native capsids adsorbed onto nitrocellulose; human mAbs at ~1 µg/ml in PBS with 6% milk, 0.1% Tween-20, 1 h; anti-human-HRP
- experimental.conditions: both partners purified
measured.metric: binding result

binder	measured.metric	observed
mAb2-3 (antibody, V domains shown) VH: VQLVESGGGLVKPGGSLRLSCATSGFTFSDYYMSWIRQAPGKGLEWVSYISSSGSTIYYADSVKGRFTMSRDNAKNSLFLRMNSLRAEDTAVYYCARDQITVDREVIRAHYYYGMDVWGQGTTVTVS VL: DIQMTQSPSSVSASVGDRVTITCRASQGINSYLAWYQQKPGKAPKLLIYAASSLESGVPSRFSGSGSGTDFTLTISSLQPEDFATYYCQQANSFPLTFGGGTKVDI	binding result	binds
